Target: Human plasma kallikrein (Homo sapiens (Human), UniProt P03952)
Sequence (P03952 391-638 limits assumed): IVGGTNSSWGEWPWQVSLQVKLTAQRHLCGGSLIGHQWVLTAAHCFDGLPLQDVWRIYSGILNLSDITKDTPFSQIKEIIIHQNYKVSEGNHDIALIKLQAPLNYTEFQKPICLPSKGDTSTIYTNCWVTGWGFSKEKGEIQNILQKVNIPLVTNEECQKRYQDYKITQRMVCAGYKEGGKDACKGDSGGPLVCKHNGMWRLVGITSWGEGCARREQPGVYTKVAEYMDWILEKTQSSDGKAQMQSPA
Sequence (P03952 20-390 partner limits assumed): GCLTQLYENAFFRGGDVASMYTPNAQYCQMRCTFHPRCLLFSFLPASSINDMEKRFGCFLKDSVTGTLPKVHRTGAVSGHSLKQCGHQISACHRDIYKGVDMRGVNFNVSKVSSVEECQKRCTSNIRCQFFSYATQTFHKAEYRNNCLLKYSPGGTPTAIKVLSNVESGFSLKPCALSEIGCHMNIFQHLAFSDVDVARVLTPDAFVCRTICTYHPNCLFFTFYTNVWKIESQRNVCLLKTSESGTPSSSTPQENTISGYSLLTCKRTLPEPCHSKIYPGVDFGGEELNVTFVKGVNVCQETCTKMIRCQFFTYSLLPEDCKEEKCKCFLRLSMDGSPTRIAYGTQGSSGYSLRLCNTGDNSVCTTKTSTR
Assay: Determination of the IC50 for plasma kallikrein (fluorogenic substrate H-DPro-Phe-Arg-AFC)
Conditions: 37° C., read-out: IC50 (human PKal)
Protocol: Determination of the IC50 Plasma Kallikrein Plasma kallikrein inhibitory activity in vitro was determined using standard published methods (see e.g. Johansen et al., Int. J. Tiss. […] Shori et al., Biochem. Pharmacol., 1992, 43, 1209; Stürzebecher et al., Biol. Chem. Hoppe-Seyler, 1992, 373, 1025). Human plasma kallikrein (Protogen) was incubated at 37° C. with the fluorogenic substrate […] and various concentrations of the test compound.
pIC50: −log10 of the molar value.
experimental.readout: pIC50

[
  {
    "compound": "Cc1cnn(Cc2ccc(Cc3cc(C(=O)NCc4ccc5c(N)nccc5c4)ncn3)cc2)c1 [Example 8]",
    "pIC50": 6.92
  },
  {
    "compound": "COc1cccc(Cc2cncc(C(=O)NCc3ccc4c(N)nccc4c3)c2)c1 [Example 25]",
    "pIC50": 5.58
  }
]

[P] Nc1nccc2cc(CNC(=O)c3cncc(Cc4cccc(-n5cccn5)c4)c3)ccc12 [Example 30]
[Q] CC1CCN(c2ccc(Cc3cncc(C(=O)NCc4ccc5c(N)nccc5c4)c3)cn2)C1 (stereo not shown) [Example 61]
For the pair P and Q , which member has the lower pIC50 number? Your answer should be the label of the entry you select.
P
